# Tested on: Bacillus subtilis ATCC 6633
# test protocol: Antibacterial assay (CLSI), B. subtilis
# Format: cell-based
# Set-up: key: inactive: Inactive at >128 μg/mL
# assay setup: Inactive at >128 μg/mL
reported metric: MIC, Bacillus subtilis ATCC 6633

{"columns": ["compound", "reported metric", "result"],
 "data": [
  ["CC1(C)CCCC2(C)C1C(O)CC1(C)C3CCc4cocc4C3(C)CCC21 (stereo not drawn) [Compound 1, Nambiscalarane B]", "MIC, Bacillus subtilis ATCC 6633", "inactive"],
  ["CC(=O)OC1CC2(C)C3CCC4=C(COC4=O)C3(C)CC(OC(=O)CC(C)=CC(=O)O)C2C2(C)CCCC(C)(C)C12 (stereo not drawn) [Compound 6, Nambiscalarane G]", "MIC, Bacillus subtilis ATCC 6633", "inactive"],
  ["CC(=CC(=O)OC1CC2(C)c3cocc3CCC2C2(C)CC(O)C3C(C)(C)CCCC3(C)C12)CC(=O)O (stereo not drawn) [Compound 4, Nambiscalarane E]", "MIC, Bacillus subtilis ATCC 6633", "inactive"]
]}
